- targetOfAssay: proprotein convertase subtilisin/kexin type 9 (PCSK9) (human) (UniProt Q8NBP7)
- method: DELFIA immunoassay (PerkinElmer Cat. #1244-330), full-length IgG on PCSK9
metricName: Relative Binding to PCSK9 Measured by DELIFA Immunoassay
Answer with the value's number alone.

# input binder: AB-9 (antibody, V domains shown) VH: QVQLVQSGAEVKKPGASVKVSCKASGYTFTSYYMHWVRQAPGQGLEWMGEIKPSGGTSNYNEKFKSRVTMTRDTSTSTVYMELSSLRSEDTAVYYCARDRPLYYSDVWGQGTTVTVSS VL: DIQMTQSPSSLSASVGDRVTITCRASQGISGSLAWYQQKPGKAPKLLIYSASYRYTGVPSRFSGSGSGTDFTFTISSLQPEDIATYYCQQYYSNYWTFGQGTKLEIK ; wanted: its Relative Binding to PCSK9 Measured by DELIFA Immunoassay
3.9

Sourced from patent US20250368753A1
